# condition notes: in ethanol, 303.15 K
observation type: solubility (mole fraction)
Please respond with just the number, no unit label.

Inquiry: Looking for the measured solubility (mole fraction) of Cl.Cl.Fc1ccc(C(c2ccc(F)cc2)N2CCN(C/C=C/c3ccccc3)CC2)cc1 , can you help?
Reply text: 0.00792

====

# condition notes: in acetonitrile, 333.15 K
observation type: solubility (mole fraction)
Respond with the number and no other words.

Inquiry: # query: solubility (mole fraction) of entry Cl.Cl.Fc1ccc(C(c2ccc(F)cc2)N2CCN(C/C=C/c3ccccc3)CC2)cc1
Reply text: 0.0119

====

# condition notes: in acetone, 298.15 K
observation type: solubility (mole fraction)
Quick one: just the number, no unit, thanks!

Inquiry: Consider the compound shown here: Cl.Cl.Fc1ccc(C(c2ccc(F)cc2)N2CCN(C/C=C/c3ccccc3)CC2)cc1 What is its recorded solubility (mole fraction)?
Reply text: 0.00338

====

# condition notes: in acetone, 293.15 K
observation type: solubility (mole fraction)
I'd appreciate a reply containing only the number, no unit.

Inquiry: What value of solubility (mole fraction) has been recorded for this entry: Cl.Cl.Fc1ccc(C(c2ccc(F)cc2)N2CCN(C/C=C/c3ccccc3)CC2)cc1
Reply text: 0.00271

====

# condition notes: in methanol, 313.15 K
observation type: solubility (mole fraction)
Please give the numeric answer without any surrounding text.

Inquiry: I'd like to know its solubility (mole fraction). The compound in question is Cl.Cl.Fc1ccc(C(c2ccc(F)cc2)N2CCN(C/C=C/c3ccccc3)CC2)cc1
Reply text: 0.0139

====

# condition notes: in n-propanol, 333.15 K
observation type: solubility (mole fraction)
The response must contain the number and no unit.

Inquiry: Name the recorded solubility (mole fraction) for Cl.Cl.Fc1ccc(C(c2ccc(F)cc2)N2CCN(C/C=C/c3ccccc3)CC2)cc1 .
Reply text: 0.0225

====

# condition notes: in acetonitrile, 293.15 K
observation type: solubility (mole fraction)
Answer using only a numeral; do not append any unit.

Inquiry: Sample Cl.Cl.Fc1ccc(C(c2ccc(F)cc2)N2CCN(C/C=C/c3ccccc3)CC2)cc1 — what was its solubility (mole fraction)?
Reply text: 0.00219

====

# condition notes: in ethanol, 333.15 K
observation type: solubility (mole fraction)

Inquiry: What does the record list as solubility (mole fraction) for Cl.Cl.Fc1ccc(C(c2ccc(F)cc2)N2CCN(C/C=C/c3ccccc3)CC2)cc1 ?
Reply text: 0.0252

====

# condition notes: in isobutanol, 333.15 K
observation type: solubility (mole fraction)
Respond with the number and no other words.

Inquiry: Which solubility (mole fraction) is reported for this molecule? Cl.Cl.Fc1ccc(C(c2ccc(F)cc2)N2CCN(C/C=C/c3ccccc3)CC2)cc1
Reply text: 0.0106

====

# condition notes: in isobutanol, 323.15 K
observation type: solubility (mole fraction)
No unit in the answer, please; the number alone is enough.

Inquiry: # lookup: solubility (mole fraction) of Cl.Cl.Fc1ccc(C(c2ccc(F)cc2)N2CCN(C/C=C/c3ccccc3)CC2)cc1
Reply text: 0.00711

====

# condition notes: in methanol, 328.15 K
observation type: solubility (mole fraction)
Reply briefly: the number, and no unit.

Inquiry: Return reported solubility (mole fraction); argument: Cl.Cl.Fc1ccc(C(c2ccc(F)cc2)N2CCN(C/C=C/c3ccccc3)CC2)cc1
Reply text: 0.025

====

# condition notes: in acetonitrile, 328.15 K
observation type: solubility (mole fraction)
Reply briefly: the number, and no unit.

Inquiry: Requested field: solubility (mole fraction). Item: Cl.Cl.Fc1ccc(C(c2ccc(F)cc2)N2CCN(C/C=C/c3ccccc3)CC2)cc1
Reply text: 0.00977

====

# condition notes: in n-butanol, 308.15 K
observation type: solubility (mole fraction)
Please give the numeric answer without any surrounding text.

Inquiry: Request the reported solubility (mole fraction) associated with Cl.Cl.Fc1ccc(C(c2ccc(F)cc2)N2CCN(C/C=C/c3ccccc3)CC2)cc1
Reply text: 0.00372

====

# condition notes: in acetone, 313.15 K
observation type: solubility (mole fraction)
Note: the reply should be a number with no unit written.

Inquiry: Reported solubility (mole fraction), molecule Cl.Cl.Fc1ccc(C(c2ccc(F)cc2)N2CCN(C/C=C/c3ccccc3)CC2)cc1 : ____
Reply text: 0.00638

====

# condition notes: in n-butanol, 313.15 K
observation type: solubility (mole fraction)
Number, no unit, nothing else.

Inquiry: Quick check: solubility (mole fraction) of Cl.Cl.Fc1ccc(C(c2ccc(F)cc2)N2CCN(C/C=C/c3ccccc3)CC2)cc1 ?
Reply text: 0.00464

====

# condition notes: in n-propanol, 293.15 K
observation type: solubility (mole fraction)
Just the number, please, no unit attached.

Inquiry: Please give the measured solubility (mole fraction) for this compound: Cl.Cl.Fc1ccc(C(c2ccc(F)cc2)N2CCN(C/C=C/c3ccccc3)CC2)cc1
Reply text: 0.00472

====

# condition notes: in isopropanol, 318.15 K
observation type: solubility (mole fraction)
Please reply with the value in numeric form only.

Inquiry: Would you kindly share the measured solubility (mole fraction) for Cl.Cl.Fc1ccc(C(c2ccc(F)cc2)N2CCN(C/C=C/c3ccccc3)CC2)cc1 ?
Reply text: 0.00756

====

# condition notes: in ethyl acetate, 298.15 K
observation type: solubility (mole fraction)
Lab note: jot the number down without any unit.

Inquiry: Which solubility (mole fraction) reading was recorded for the molecule Cl.Cl.Fc1ccc(C(c2ccc(F)cc2)N2CCN(C/C=C/c3ccccc3)CC2)cc1 ?
Reply text: 0.00184

====

# condition notes: in n-butanol, 333.15 K
observation type: solubility (mole fraction)
Just the number, please, no unit after it.

Inquiry: Need solubility (mole fraction) of Cl.Cl.Fc1ccc(C(c2ccc(F)cc2)N2CCN(C/C=C/c3ccccc3)CC2)cc1 , thanks.
Reply text: 0.0107

====

# condition notes: in acetone, 308.15 K
observation type: solubility (mole fraction)
The answer should be written as a number, with no unit following it.

Inquiry: For Cl.Cl.Fc1ccc(C(c2ccc(F)cc2)N2CCN(C/C=C/c3ccccc3)CC2)cc1 , what is its reported solubility (mole fraction)?
Reply text: 0.00518

====

# condition notes: in isopropanol, 293.15 K
observation type: solubility (mole fraction)
Just the number, please, no unit attached.

Inquiry: Tell me the measured solubility (mole fraction) of Cl.Cl.Fc1ccc(C(c2ccc(F)cc2)N2CCN(C/C=C/c3ccccc3)CC2)cc1 , please.
Reply text: 0.0026

====

# condition notes: in acetone, 328.15 K
observation type: solubility (mole fraction)
Would you mind answering with just the numeric figure?

Inquiry: solubility (mole fraction) for Cl.Cl.Fc1ccc(C(c2ccc(F)cc2)N2CCN(C/C=C/c3ccccc3)CC2)cc1 ?
Reply text: 0.0115

====

# condition notes: in methanol, 318.15 K
observation type: solubility (mole fraction)
Write the number on its own, no unit after it.

Inquiry: I would be grateful if you could share the reported solubility (mole fraction) for Cl.Cl.Fc1ccc(C(c2ccc(F)cc2)N2CCN(C/C=C/c3ccccc3)CC2)cc1 .
Reply text: 0.017

====

# condition notes: in n-propanol, 323.15 K
observation type: solubility (mole fraction)
Answer as a number with no unit attached.

Inquiry: Give its solubility (mole fraction) value. Item: Cl.Cl.Fc1ccc(C(c2ccc(F)cc2)N2CCN(C/C=C/c3ccccc3)CC2)cc1
Reply text: 0.0157

====

# condition notes: in isopropanol, 333.15 K
observation type: solubility (mole fraction)
// print number alone

Inquiry: Need solubility (mole fraction), item Cl.Cl.Fc1ccc(C(c2ccc(F)cc2)N2CCN(C/C=C/c3ccccc3)CC2)cc1
Reply text: 0.0136

====

# condition notes: in methanol, 298.15 K
observation type: solubility (mole fraction)
Respond numerically, and do not add a unit to the figure.

Inquiry: Requested field: solubility (mole fraction). Item: Cl.Cl.Fc1ccc(C(c2ccc(F)cc2)N2CCN(C/C=C/c3ccccc3)CC2)cc1
Reply text: 0.0076

====

# condition notes: in isopropanol, 298.15 K
observation type: solubility (mole fraction)
Please give the numeric answer without any surrounding text.

Inquiry: Which solubility (mole fraction) reading was recorded for the molecule Cl.Cl.Fc1ccc(C(c2ccc(F)cc2)N2CCN(C/C=C/c3ccccc3)CC2)cc1 ?
Reply text: 0.00328

====

# condition notes: in methyl acetate, 293.15 K
observation type: solubility (mole fraction)
Could you keep your reply to the number by itself?

Inquiry: Using the record for Cl.Cl.Fc1ccc(C(c2ccc(F)cc2)N2CCN(C/C=C/c3ccccc3)CC2)cc1 , report its solubility (mole fraction).
Reply text: 0.00133

====

# condition notes: in methyl acetate, 318.15 K
observation type: solubility (mole fraction)
Number, no unit, nothing else.

Inquiry: Name the reported solubility (mole fraction) value associated with the compound Cl.Cl.Fc1ccc(C(c2ccc(F)cc2)N2CCN(C/C=C/c3ccccc3)CC2)cc1
Reply text: 0.004

====

# condition notes: in methyl acetate, 328.15 K
observation type: solubility (mole fraction)

Inquiry: Looking for the measured solubility (mole fraction) of Cl.Cl.Fc1ccc(C(c2ccc(F)cc2)N2CCN(C/C=C/c3ccccc3)CC2)cc1 , can you help?
Reply text: 0.00603

====

# condition notes: in n-propanol, 313.15 K
observation type: solubility (mole fraction)

Inquiry: Fill blank: measured solubility (mole fraction) of the molecule Cl.Cl.Fc1ccc(C(c2ccc(F)cc2)N2CCN(C/C=C/c3ccccc3)CC2)cc1 is ____.
Reply text: 0.0108
